All values here come from paper PMC10786891.

Listed below: Kd values for each entry.
Molecular target: T1, EsCas13d, nuclease-dead (Eubacterium siraeum, UniProt B0MS50, R295A;H300A;R849A;H854A)
T1 sequence: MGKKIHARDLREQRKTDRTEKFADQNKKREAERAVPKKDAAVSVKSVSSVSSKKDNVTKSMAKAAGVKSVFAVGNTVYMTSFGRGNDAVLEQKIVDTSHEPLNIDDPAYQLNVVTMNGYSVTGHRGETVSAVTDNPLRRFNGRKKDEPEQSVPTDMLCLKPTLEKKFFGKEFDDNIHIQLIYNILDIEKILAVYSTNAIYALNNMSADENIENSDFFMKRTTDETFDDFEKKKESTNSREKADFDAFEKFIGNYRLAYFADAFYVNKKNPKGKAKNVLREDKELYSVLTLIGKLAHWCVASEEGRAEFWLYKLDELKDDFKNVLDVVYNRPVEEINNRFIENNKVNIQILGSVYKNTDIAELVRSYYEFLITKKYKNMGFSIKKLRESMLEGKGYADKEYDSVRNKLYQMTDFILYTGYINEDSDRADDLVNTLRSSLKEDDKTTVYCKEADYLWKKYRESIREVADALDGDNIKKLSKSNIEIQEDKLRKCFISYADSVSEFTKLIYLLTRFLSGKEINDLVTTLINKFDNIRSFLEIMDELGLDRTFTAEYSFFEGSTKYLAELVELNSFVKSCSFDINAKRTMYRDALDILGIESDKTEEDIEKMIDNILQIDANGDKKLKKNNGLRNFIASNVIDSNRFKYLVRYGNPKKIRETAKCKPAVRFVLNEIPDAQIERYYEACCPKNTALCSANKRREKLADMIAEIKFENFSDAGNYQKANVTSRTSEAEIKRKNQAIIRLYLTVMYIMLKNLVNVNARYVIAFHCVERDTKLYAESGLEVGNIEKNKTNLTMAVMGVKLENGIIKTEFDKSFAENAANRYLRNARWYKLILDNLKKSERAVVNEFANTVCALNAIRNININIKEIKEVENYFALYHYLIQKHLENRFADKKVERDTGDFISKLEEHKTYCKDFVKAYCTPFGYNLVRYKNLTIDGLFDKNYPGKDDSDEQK
Experiment: crRNA (strand 1, pre-loaded); Mg2+; 40 mM Tris-HCl pH 7.5, 150 mM NaCl, 6 mM MgCl2, 1 mM DTT, 0.1% Tween-20, 0.2 mg/ml BSA; 25 C; 10 min per concentration, then washed
Conditions: tags: His6-TwinStrep-SUMO cleaved; N-terminal SNAP kept (SNAP-Surface 488); label: 3' end held by stalled T7 RNA polymerase
Dear colleague, please return just the value in nM, with no unit written.

Example entries and their recorded answers appear below.
Binder: target 1 insC 3' of 10,insA 3' of 8 (mixed) RNA 1: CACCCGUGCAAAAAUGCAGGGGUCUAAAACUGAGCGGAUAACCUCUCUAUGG RNA 2: GGGAAUGGAUCCACAUCUACGAAUUCGUACCAUAGAGAGGUUCAUACCGCUCACCGAGAUCGGAAGAGCACACGU
Kd [nM]: 18.8
//
Binder: target 1 insC 3' of 19,insA 3' of 8 (mixed) RNA 1: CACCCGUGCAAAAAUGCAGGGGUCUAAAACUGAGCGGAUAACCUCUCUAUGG RNA 2: GGGAAUGGAUCCACAUCUACGAAUUCGUACCAUCAGAGAGGUUAUACCGCUCACCGAGAUCGGAAGAGCACACGU
Kd [nM]: 47
//
Binder: target 3 insG 3' of 6,insC 3' of 3 (mixed) RNA 1: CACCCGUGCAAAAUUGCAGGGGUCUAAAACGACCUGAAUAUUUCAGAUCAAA RNA 2: GGGAAUGGAUCCACAUCUACGAAUUCGUUUUUGAUCUGAAAUAUUCGAGGCUCUGCAGAUCGGAAGAGCACACGU
Kd [nM]: 17.5

Please report the recorded Kd for target 1 U3C,U8C (mixed) RNA 1: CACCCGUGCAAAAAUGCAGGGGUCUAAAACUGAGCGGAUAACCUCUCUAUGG RNA 2: GGGAAUGGAUCCACAUCUACGAAUUCGUACCAUAGAGAGGUUACCCGCCCACCGAGAUCGGAAGAGCACACGU .
13.4
